# measured target: UniProtKB P00533
# Sequence (P00533 25-1210): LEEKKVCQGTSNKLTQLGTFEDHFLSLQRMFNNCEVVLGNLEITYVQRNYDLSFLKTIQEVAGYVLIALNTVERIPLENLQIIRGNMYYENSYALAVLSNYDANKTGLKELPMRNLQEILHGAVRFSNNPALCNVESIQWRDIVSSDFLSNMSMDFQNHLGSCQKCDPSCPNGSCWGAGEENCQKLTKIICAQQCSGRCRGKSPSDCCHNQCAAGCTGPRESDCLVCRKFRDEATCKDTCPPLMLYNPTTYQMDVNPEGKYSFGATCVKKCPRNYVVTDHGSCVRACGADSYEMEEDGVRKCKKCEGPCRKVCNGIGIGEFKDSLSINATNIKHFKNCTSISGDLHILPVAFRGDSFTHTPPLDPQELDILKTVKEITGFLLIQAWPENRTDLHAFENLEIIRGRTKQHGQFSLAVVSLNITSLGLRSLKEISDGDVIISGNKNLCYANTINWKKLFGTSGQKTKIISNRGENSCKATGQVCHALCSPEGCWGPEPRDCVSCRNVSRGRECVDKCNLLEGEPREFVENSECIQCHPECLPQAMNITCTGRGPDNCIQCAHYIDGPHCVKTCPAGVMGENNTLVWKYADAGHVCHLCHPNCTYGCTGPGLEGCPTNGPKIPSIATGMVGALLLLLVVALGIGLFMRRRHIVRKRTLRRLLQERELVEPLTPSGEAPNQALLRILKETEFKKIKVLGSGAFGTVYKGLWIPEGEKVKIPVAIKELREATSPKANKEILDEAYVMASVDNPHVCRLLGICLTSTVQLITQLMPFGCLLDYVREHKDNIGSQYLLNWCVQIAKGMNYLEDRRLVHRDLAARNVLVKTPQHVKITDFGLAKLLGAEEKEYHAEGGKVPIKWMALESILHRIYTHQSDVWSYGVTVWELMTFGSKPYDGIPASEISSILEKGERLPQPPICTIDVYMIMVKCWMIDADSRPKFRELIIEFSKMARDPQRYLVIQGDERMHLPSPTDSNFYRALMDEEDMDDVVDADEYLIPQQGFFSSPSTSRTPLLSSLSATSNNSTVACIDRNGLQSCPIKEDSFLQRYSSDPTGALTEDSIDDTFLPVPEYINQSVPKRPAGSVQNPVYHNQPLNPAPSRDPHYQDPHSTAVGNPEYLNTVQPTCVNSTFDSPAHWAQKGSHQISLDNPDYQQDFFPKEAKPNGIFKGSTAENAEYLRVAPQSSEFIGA
# procedure details: Inhibition of the EGFR-dependent proliferation (EGF-stimulated murine haematopoietic cell line expressing human EGF-R)
# assay context: 20 ng/ml human EGF, 48 hours at 37° C.
# Procedure: A murine haematopoietic cell line is genetically modified so as to express functional human EGF-R. The proliferation of this cell line can therefore be stimulated by EGF. The test is carried out as follows: The cells are cultivated in RPMI/1640 medium. […] In order to determine the inhibitory activity of the compound (I.1) according to the invention the relative cell number is measured in O.D. units using the Cell Titer 96TM AQueous Non-Radioactive Cell Proliferation Assay (Promega). […]
property name: IC50
# include the unit after the value

query: Which IC50 is reported for this molecule? COc1cc2ncnc(Nc3ccc(F)c(Cl)c3)c2cc1O[C@H]1CC[C@@H](N(C)C(=O)N2CCOCC2)CC1 [Compound (I.1)]
result: 0.01 µM

These data points were gathered from patent US20120046284A1.
